# key: entry, value: Log2(fold change) N-acetyl-glutamine
Test system: 3D7-MR4 trophozoite parasite-infected RBCs
protocol: Metabolomic profiling (hydrophilic metabolite changes, UHPLC-MS)
Format: cell-based, Plasmodium falciparum
condition_label: metabolite N-acetyl-glutamine

| compound | Log2(fold change) N-acetyl-glutamine |
| --- | --- |
| COc1cncc(-c2cncc(N3CCN(c4ccncc4)CC3)n2)c1 | -0.2990 |
| O=C1C(O)=C([C@H]2CC[C@H](c3ccc(Cl)cc3)CC2)C(=O)c2ccccc21 [Atovaquone, reference compound] | -0.1228 |
| Clc1ccc2c(N3CCN(CCCN4CCN(c5ccnc6cc(Cl)ccc56)CC4)CC3)ccnc2c1 [Piperaquine, reference compound] | 0.0000 |
| CN(C)Cc1ccc(-c2cc3c(-c4ccc(CN(C)C)cc4)ccnc3[nH]2)cc1.O=C(O)C(F)(F)F | -1.3853 |
| Cl.c1ccc2c(NCCCCCCNc3c4c(nc5ccccc35)CCCC4)c3c(nc2c1)CCCC3 | -3.0977 |
| CN(C)c1ccc2nc3ccc(=[N+](C)C)cc-3sc2c1 [Methylene blue, reference compound] | 0.0000 |

* * *

Tested on: 3D7-MR4 trophozoite parasite-infected RBCs
protocol: Metabolomic profiling (hydrophilic metabolite changes, UHPLC-MS)
Assay type: cell-based, Plasmodium falciparum
condition_label: metabolite PE
property: Log2(fold change) PE

| compound | study_system | property | quantitative_result |
| --- | --- | --- | --- |
| Clc1ccc2c(N3CCN(CCCN4CCN(c5ccnc6cc(Cl)ccc56)CC4)CC3)ccnc2c1 [Piperaquine, reference compound] | 3D7-MR4 trophozoite parasite-infected RBCs | Log2(fold change) PE | 0.0291 |
| CNc1nc(NCCCN(C)C)c2sc(-c3cccc(C(F)(F)F)c3)cc2n1 [MMV668311] | 3D7-MR4 trophozoite parasite-infected RBCs | Log2(fold change) PE | 0.0346 |
| O=C(Nc1ccc(N2CCNCC2)cc1)c1ccn2ncc(-c3cccc(Cl)c3)c2n1.O=C(O)C(F)(F)F [MMV022478] | 3D7-MR4 trophozoite parasite-infected RBCs | Log2(fold change) PE | -5.1379 |
| CCOC(=O)C1=C(C)NC2=C(C(=O)CC(c3ccc(OC)c(OC)c3)C2)C1c1ccccc1Cl (stereo not drawn) [GNF-Pf-5660, reference compound] | 3D7-MR4 trophozoite parasite-infected RBCs | Log2(fold change) PE | -1.8289 |
| CCCOCc1cc(CN2CCN(c3cccc(Cl)c3)CC2)c(O)c2ncccc12 [MMV000787] | 3D7-MR4 trophozoite parasite-infected RBCs | Log2(fold change) PE | 0.4326 |
| CCCN(CCC)CC(O)COc1ccccc1C(=O)Nc1ccccc1 (stereo not drawn) [MMV006455] | 3D7-MR4 trophozoite parasite-infected RBCs | Log2(fold change) PE | 2.1593 |
| COc1cc(-c2nc(-c3ccccc3)c(-c3ccccc3)[nH]2)ccc1OCCN(C)C [MMV027496] | 3D7-MR4 trophozoite parasite-infected RBCs | Log2(fold change) PE | -1.1988 |
| COCCNCC(O)Cn1c2ccc(Cl)cc2c2cc(Cl)ccc21 (stereo not drawn) [MMV019017] | 3D7-MR4 trophozoite parasite-infected RBCs | Log2(fold change) PE | 0.0923 |
| CN(C(=O)c1cn2c(-c3ccc(C(F)(F)F)cc3)cnc2cn1)c1ccc(C#N)cc1 [KAI407, reference compound] | 3D7-MR4 trophozoite parasite-infected RBCs | Log2(fold change) PE | -0.6905 |
